measurementDescription: Tissue distribution of radioactivity in rats after intravenous administration
Type: in vivo
reportedConditions: rat, liver, iv, 5 min, read-out: Distribution of radioactivity, Liver
measuredProperty: tissue uptake at 5 min (%ID/g)

{"smilesInput": "O=C(O)CCCC[Te]CCCCCCCCCc1ccc([125I])cc1", "measuredProperty": "tissue uptake at 5 min", "unitString": "%ID/g", "measured": 9.57}

----------
measurementDescription: Tissue distribution of radioactivity in rats after intravenous administration
Type: in vivo
reportedConditions: rat, lungs, iv, 6 h, read-out: Distribution of radioactivity, Lungs

{"smilesInput": "O=C(O)CCCC[Te]CCCCCCCCCc1ccc([125I])cc1", "tissue uptake at 6 h [%ID/g]": 1.1}

All values here come from patent US4523033A.
